System: NCI-H460
Assay: Growth inhibition of human H460 cells after 72 hrs by MTT method
Type: functional, cell-based
Conditions: NCI-H460, 72 h
measure.name: IC50 (µM)
Report the figure in µM without appending any unit label.

// worked examples, IC50 included
| smiles.entry | numeric.value |
| --- | --- |
| Cl.O=C(Nc1ccc(C2=NCCN2)nc1)c1sc2ccccc2c1Cl | 1.3 |
| Cl.O=C(Nc1ccc(C2=NCCN2)cn1)c1sc2ccccc2c1Cl | 1 |
| Cl.O=c1[nH]c2ncc(C3=NCCN3)cc2c2c1sc1ccccc12 | 1 |
| O=C(Nc1ccncc1)c1sc2ccccc2c1Cl | 68 |

Now for another entry.
Please state recorded IC50 (tested on NCI-H460) of N#Cc1ccc(NC(=O)c2sc3ccccc3c2Cl)nc1
59
